- System: U-87 MG
- method-description: Cytotoxicity against human U87MG cells assessed as reduction in cell viability after 48 hrs under hypoxia condition by MTT assay
- Assay type: functional, cell-based, U-87MG ATCC
result-type: IC50 (µM)

>>> readout_value("Cn1nnc2c(C(N)=O)ncn2c1=O [TEMOZOLOMIDE]")
1100
>>> readout_value("C=C1/C=C/C(=O)NCC(=O)N[C@@H](C(C)C)C(=O)O[C@@H]([C@H](C)C[C@@H](C)CCC)[C@H](OC)C(=O)N1")
0.12
>>> readout_value("COc1cccc2c1C(=O)c1c(O)c3c(c(O)c1C2=O)C[C@@](O)(C(=O)CO)C[C@@H]3O[C@H]1C[C@H](N)[C@H](O)[C@H](C)O1 [DOXORUBICIN]")
0.98

----------
- Test system: A549
- method-description: Cytotoxicity against human A549 cells assessed as reduction in cell viability after 48 hrs by MTT assay
- Type: functional, cell-based
- protocol-conditions: A549, 48 h
result-type: IC50 (µM)

>>> readout_value("C=C1/C=C/C(=O)NCC(=O)N[C@@H](C(C)C)C(=O)O[C@@H]([C@H](C)C[C@@H](C)CCC)[C@H](OC)C(=O)N1")
0.39

Reference source: ChEMBL document CHEMBL4610085
